# SYSTEM_UNDER_TEST: T1, Full-length human HER3 extracellular domain (ECD) (human, UniProt P21860 20-643)
# T1 construct: also called human HER3 ECD; HER-3 ECD full length
# TEST_DESCRIPTION: BIACORE 3000 SPR, mAb captured by anti-human Fc, ECD as analyte, 25 C
REPORTED_ENDPOINT: Kd (nM)
Numbers only, in nM.

**Q:** Please list Kd recorded for the binder 15D5 H1L3 antibody (antibody, V domains shown, Humanized 15D5 variant; also called 15D5 HIL3 antibody) VH: QFQLVQSGAEVKKPGASVKVSCKASGYSFTDYNMNWVKQAPGQGLEWIGGINPNYGTTVYNQKFKGKATLTVDQSISTAYMELSRLRSDDTAVYYCARMTTIVPFDYWGQGTTVTVSS VL: DIQMTQSPSSLSASVGDRVTITCRASQDISNYLNWYQQKPGKAPKLLIYYTSTLHSGVPSRFSGSGSGTDFTLTISSLQPEDFATYYCQQGYTLPWTFGQGTKLEIKR
**A:** 10
